protocol text: yeast display, Sf9 membrane polyspecificity reagent, FACS + sequencing; frameworks hold sequencing errors
observable: polyreactivity (PSR sort gate)

These solved cases illustrate the format of a correct answer.
QVQLVESGGGLVQAGGSLRLSCAASGSIFGFNAMGWYRQAPGKERELVAAINNGGSTNYADSVKGRFTISRDNAKNTVYLQMNSLKPEDTAVYYCSARLNYIRRGYWGQGTQVTVSS: high polyreactivity
QVQLVESGGGLVQAGGSLRLSCAASGITFEVNAMGWYRQAPGKERELVARISRDGSTNYADSVKGRFTISRDNAKNTVYLQRNSLKPEDTAVYYCNAKLYRSFDYWGQGTQVTVSS: low polyreactivity
QVQLVESGGGLVQAGGSLRLSCAASGRIFYWNAMGWYRQAPGKERELVAGITGGGNTNYADSVKGRFTISRDNAKNTVYLQMNSLKPEDTAVYYCATRTNRRRSYDYWGQGTQVTVSS: high polyreactivity
QVQHVESGGGLVQAVVSLRLSCAATGRIISYNAMGWYRQAPGKEWELVAAISWVGGSTYYADSVKGRFTISRDIAKNTVYLQMNCLKPEDTAVYYCAKGWYRIKRNDYWGQGTQVTVSS: low polyreactivity
QVQLVESGRGLVQAGGSLRLRCAASGRNIRAYAMGCYRQAPGTERDLVAAITWSGGGTYYADSVKGRFTISRDNAKNTVYLQMTSLKPEDTAVYYCAAVTTLRPSWKRYYYWGQGTQVTVSS: high polyreactivity

Give polyreactivity (PSR sort gate) for each listed item.
1. QVQLVESGGGLLQAGGSLRISCAASGIIFRLYDMAWYRQAPGKERELVAAISSGGSTYYADSVKGRFTISRDNAKNTVYLQMNSLKPVDTAVYYCNARVRYKRTGRYGYWGQVTQVTVSS
2. QVQLVESGVGLVQAGGSLSLSCAASGPYYFMGWYRQAPGKESELVAAITRRGGRTYYADSVKGRFTISRDNANITVYLQMNSLKPEDTAVYYCAAKYRYHVSGYDYWGQGTQVTVSS
3. QVQLVESGRGLVQAGGSLRLSCAASGSTFRYNTMGSYRQAPGKERELVAAITGGGGSTYYADSVKGRFTISRDNAKNTVYLQMNSMKPEDTAVYYCATRSYALGYDYGGQGTQVTVSS
4. QVQLVESGGGLVQAGGSLRLSCDASGFTFGRNAMGWYRQAPGKERELVAAISSSGGTTYYADSVKGRFTISRDNAKNTVYLQMNSLKPEDTAVYYCAAGYYYRYDYWGQGTQVTVSS
5. QVQLVESGGGLVQAGGTLRLSCAASGSIFPRYGMGWYRHAPGKERELVAAISGSGGSTYYADSVKGRFTISRDNAKNTVYLQMNSLKPEDTAVYYCNKLRRRVNRDIDDYWGQRTQVTVSS
6. QVQLVESGGGLVQAGGSLRLSCAASGGIFYGYAMGWYRQAPGKERELVASISSDDRTNNADSVKGRFTISRDNAKNTVYLQMNSLKPEDTAVYSCNAELGSDTSNFDYWGQGTQVTVSS

1: high polyreactivity; 2: high polyreactivity; 3: low polyreactivity; 4: high polyreactivity; 5: high polyreactivity; 6: low polyreactivity

Data provenance: the nanobody polyreactivity screen of Harvey et al. (2022)
